The values you see were collected from the supplement of paper PMC12669032.

Listed here: items and their measured growth AUC.
system: Fusobacterium nucleatum subsp. animalis; assay: growth AUC relative to DMSO control (median of replicates) (fraction); higher = more growth (less inhibition), active = hit call of the paper; conditions: 20 µM; 24 h

Some compounds with known growth AUC results, for comparison:
CCc1cc(C)cc(CC)c1-c1c(OC(=O)C(C)(C)C)n2n(c1=O)CCOCC2; 1.1 (inactive)
CNC(=O)Oc1cccc2c1OC(C)(C)O2; 1.01 (inactive)
CCS(=O)(=O)c1nc2ccccn2c1S(=O)(=O)NC(=O)Nc1nc(OC)cc(OC)n1; 0.977 (inactive)

Prompt: Query the reported growth AUC for Fusobacterium nucleatum subsp. animalis; item: Cc1cccc(C)c1N
Response: 0.927 (inactive)

Prompt: Query the reported growth AUC for Fusobacterium nucleatum subsp. animalis; item: COP(=S)(OC)SCN1C(=O)c2ccccc2C1=O
Response: 0.947 (inactive)

Prompt: Query the reported growth AUC for Fusobacterium nucleatum subsp. animalis; item: O=[N+]([O-])NC1=NCOCN1Cc1cnc(Cl)s1
Response: 1.15 (inactive)
